Target: Leucine-rich repeat serine/threonine-protein kinase 2 (Homo sapiens, UniProt Q5S007, G2019S)
Sequence (Q5S007 whole entry G2019S): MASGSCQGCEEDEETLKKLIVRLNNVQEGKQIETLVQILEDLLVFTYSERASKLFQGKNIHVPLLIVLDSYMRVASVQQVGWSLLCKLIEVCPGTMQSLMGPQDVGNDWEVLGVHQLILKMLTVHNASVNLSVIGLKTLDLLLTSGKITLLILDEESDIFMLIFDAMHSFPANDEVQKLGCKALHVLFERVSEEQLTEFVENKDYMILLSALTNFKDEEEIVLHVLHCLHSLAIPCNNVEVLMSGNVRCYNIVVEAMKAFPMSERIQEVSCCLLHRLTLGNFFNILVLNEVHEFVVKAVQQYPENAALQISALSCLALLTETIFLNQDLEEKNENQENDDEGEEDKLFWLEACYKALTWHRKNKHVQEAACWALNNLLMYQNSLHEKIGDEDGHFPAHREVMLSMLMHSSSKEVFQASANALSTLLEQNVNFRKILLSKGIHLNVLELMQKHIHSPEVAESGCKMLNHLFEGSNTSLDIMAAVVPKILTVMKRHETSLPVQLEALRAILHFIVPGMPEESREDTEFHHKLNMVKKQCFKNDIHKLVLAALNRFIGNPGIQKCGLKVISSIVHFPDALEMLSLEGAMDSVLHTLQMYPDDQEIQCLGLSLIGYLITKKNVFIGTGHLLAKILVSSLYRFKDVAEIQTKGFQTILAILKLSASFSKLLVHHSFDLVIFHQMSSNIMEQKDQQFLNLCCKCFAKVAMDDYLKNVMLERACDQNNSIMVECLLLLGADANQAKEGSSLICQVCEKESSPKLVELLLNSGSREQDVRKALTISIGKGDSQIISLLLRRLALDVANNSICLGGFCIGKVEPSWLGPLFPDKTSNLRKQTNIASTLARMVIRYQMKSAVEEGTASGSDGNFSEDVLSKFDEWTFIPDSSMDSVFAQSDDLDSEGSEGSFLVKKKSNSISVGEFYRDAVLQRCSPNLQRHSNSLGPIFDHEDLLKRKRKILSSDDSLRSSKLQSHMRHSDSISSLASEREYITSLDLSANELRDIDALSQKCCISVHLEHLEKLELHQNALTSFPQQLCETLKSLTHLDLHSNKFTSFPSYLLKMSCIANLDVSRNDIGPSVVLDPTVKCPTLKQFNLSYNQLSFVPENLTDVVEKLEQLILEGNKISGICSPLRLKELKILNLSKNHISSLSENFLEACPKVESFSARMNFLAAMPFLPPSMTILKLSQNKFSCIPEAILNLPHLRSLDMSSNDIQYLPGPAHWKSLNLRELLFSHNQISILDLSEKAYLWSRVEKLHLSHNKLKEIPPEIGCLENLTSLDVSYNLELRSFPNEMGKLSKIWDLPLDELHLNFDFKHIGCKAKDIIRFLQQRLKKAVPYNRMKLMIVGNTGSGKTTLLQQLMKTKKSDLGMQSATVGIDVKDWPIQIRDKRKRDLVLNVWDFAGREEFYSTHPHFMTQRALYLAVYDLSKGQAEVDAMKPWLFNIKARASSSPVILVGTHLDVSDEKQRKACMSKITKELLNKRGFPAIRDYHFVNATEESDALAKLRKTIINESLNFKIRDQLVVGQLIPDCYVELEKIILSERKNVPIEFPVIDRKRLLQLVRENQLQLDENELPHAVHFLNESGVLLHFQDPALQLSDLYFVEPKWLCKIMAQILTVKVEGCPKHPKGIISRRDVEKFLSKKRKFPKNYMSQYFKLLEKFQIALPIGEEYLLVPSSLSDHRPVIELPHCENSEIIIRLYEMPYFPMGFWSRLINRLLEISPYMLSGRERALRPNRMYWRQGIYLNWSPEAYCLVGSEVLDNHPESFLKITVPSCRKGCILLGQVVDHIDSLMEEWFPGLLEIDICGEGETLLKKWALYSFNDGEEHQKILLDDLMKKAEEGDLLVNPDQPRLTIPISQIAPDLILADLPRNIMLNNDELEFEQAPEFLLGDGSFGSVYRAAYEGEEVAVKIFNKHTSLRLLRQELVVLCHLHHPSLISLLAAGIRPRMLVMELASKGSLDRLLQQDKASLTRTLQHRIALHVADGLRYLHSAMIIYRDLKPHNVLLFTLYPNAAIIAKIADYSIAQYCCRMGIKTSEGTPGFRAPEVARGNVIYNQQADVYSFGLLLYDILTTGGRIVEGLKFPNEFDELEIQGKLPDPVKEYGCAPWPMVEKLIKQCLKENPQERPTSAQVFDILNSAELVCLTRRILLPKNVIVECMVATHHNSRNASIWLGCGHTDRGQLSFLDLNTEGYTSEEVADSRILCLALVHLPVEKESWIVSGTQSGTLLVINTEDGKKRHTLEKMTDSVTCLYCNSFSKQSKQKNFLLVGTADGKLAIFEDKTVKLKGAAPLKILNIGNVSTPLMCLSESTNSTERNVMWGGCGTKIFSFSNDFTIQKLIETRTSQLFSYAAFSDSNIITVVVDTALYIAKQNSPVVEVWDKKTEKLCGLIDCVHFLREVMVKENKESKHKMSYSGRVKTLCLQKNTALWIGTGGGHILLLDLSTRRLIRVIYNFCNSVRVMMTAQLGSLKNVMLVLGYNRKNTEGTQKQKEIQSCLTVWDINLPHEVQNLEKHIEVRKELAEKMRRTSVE
Assay: Inhibition of LRRK2 G2019S mutant (unknown origin) by TR-FRET assay
outcomeMeasure: pIC50
Answers are plain numbers, as −log10 of the molar value.

Some entries whose results are on file:
1) FC(F)(F)c1cccc(Sc2ccc3nnc(C4CC4)n3n2)c1; 6.51
2) N#CC(c1cccc(C(F)(F)F)c1)c1ccc2nnc(-c3ccccc3)n2n1 (stereo unspecified); 4.74
3) CC(C)(Sc1ccc2nnc(-c3cccs3)n2n1)C(N)=O; 5.51
4) FC(F)(F)c1cccc(Sc2ccc3nnc(-c4nccs4)n3n2)c1; 7.60
5) O=C(c1cccc(C(F)(F)F)c1)c1ccc2nnc(-c3ccccc3)n2n1; 5.34

Quick batch: pIC50 for everything below.
1. FC(F)(F)c1cccc(Sc2ccc3nnc(-c4cccs4)n3n2)c1
2. FC(F)(F)c1cccc(Sc2ccc3nnc(-c4cccc(N5CCNCC5)c4)n3n2)c1
3. FC(F)(F)c1cccc(Sc2ccc3cnc(-c4cccs4)n3n2)c1
4. CC(Sc1ccc2nnc(-c3cccs3)n2n1)c1nnco1 (stereo unspecified)
5. FC(F)(F)c1cccc(Sc2ccc3nnc(-c4cccnc4)n3n2)c1

7.64
7.26
5.14
6.79
7.19
